From: paper PMC11872064

# experimental.details: Rat pharmacokinetic study
# Type: in vivo
# experimental.conditions: male, Sprague-Dawley, whole blood, po, 19.6 mg/kg
measurement.kind: Cmax

I would be grateful if you could share the reported Cmax for CCc1oc2cc(F)ccc2c1C(=O)c1cc(Br)c(O)c(Br)c1 [Compound 5] . 6460 to 6470 ng/mL

###

# experimental.details: Rat pharmacokinetic study
# Type: in vivo
# experimental.conditions: male, Sprague-Dawley, whole blood, iv, 0.43 mg/kg
measurement.kind: AUC(0-t) (ng·h/mL)
Numbers only, in ng·h/mL.

Value lookup for AUC(0-t); key = CCc1oc2cc(F)ccc2c1C(=O)c1cc(Br)c(O)c(Br)c1 2090

###

# experimental.details: Rat pharmacokinetic study
# Assay type: in vivo
# experimental.conditions: male, Sprague-Dawley, whole blood, po, 19.6 mg/kg
measurement.kind: Tmax

Returns the measured Tmax for the input compound. Input: CCc1oc2cc(F)ccc2c1C(=O)c1cc(Br)c(O)c(Br)c1 2 to 3 h

###

# experimental.details: Rat pharmacokinetic study
# Type: in vivo
# experimental.conditions: male, Sprague-Dawley, whole blood, po, 19.6 mg/kg
measurement.kind: AUC(0-t) (ng·h/mL)
Numbers only, in ng·h/mL.

Please report the recorded AUC(0-t) for CCc1oc2cc(F)ccc2c1C(=O)c1cc(Br)c(O)c(Br)c1 . 60600

###

# experimental.details: Rat pharmacokinetic study
# Format: in vivo
# experimental.conditions: male, Sprague-Dawley, whole blood, iv, 0.43 mg/kg, T1/2, rat, iv orbital sinus dosing 0.43 mg/Kg
measurement.kind: half-life

Entry CCc1oc2cc(F)ccc2c1C(=O)c1cc(Br)c(O)c(Br)c1 has what half-life? ~3 h
